Cited source for all entries: the METLIN SMRT retention time set (Domingo-Almenara et al. 2019)

Assay: gradient 5% acetonitrile 3 min, to 50% in 2 min, to 85% in 15 min, held 3 min, 100 µL/min
Settings: column: Zorbax Extend-C18 2.1 x 50 mm; eluents: water / acetonitrile, 0.1% formic acid
Endpoint: RP-LC retention time (s)

Here is how some compounds turned out for RP-LC retention time.
Cc1ccc([N+](=O)[O-])cc1NC(=O)Cc1cc(-c2ccc(F)cc2)on1	896
Cc1ccc(C(=O)N2CCN(c3ccc(-c4nc(C)c(C)s4)cn3)CC2)s1	891
CCOC(=O)CCNC(=O)N1CCN(Cc2nnnn2-c2ccc(F)c(F)c2)CC1	688
Brc1cn2c(Nc3ccc4c(c3)OCO4)c(-c3ccccc3)nc2cn1	940
CCOC(=O)c1c(CN2CCOCC2)n(C)c2cc(-c3cccnc3)c3c(c12)CN(C)CO3	784
CCOc1ccc(NC(=O)N2CCN(c3nc4cccnc4s3)CC2)cc1	752
COC(=O)c1ncn2c1C(=O)N(Cc1ccc(C)cc1)C(C)(C(=O)NCc1ccc(C)cc1)C2 (centres undefined)	788

(1) COC(=O)c1c(C)[nH]c(C(=O)N2CCCC(C(=O)N3CCN(c4cc(C)ccc4C)CC3)C2)c1C (centres undefined)
(2) O=C(NCCCN1CCCC1=O)c1cc2c(s1)CCN(C(=O)c1ccc(F)cc1)C2
Task: For this pair, 1 and 2 , which shows a numerically higher RP-LC retention time? When you have decided, please share the label of that item.
Result: 1

----------
Assay: gradient 5% acetonitrile 3 min, to 50% in 2 min, to 85% in 15 min, held 3 min, 100 µL/min
Settings: column: Zorbax Extend-C18 2.1 x 50 mm; eluents: water / acetonitrile, 0.1% formic acid
Endpoint: RP-LC retention time (s)

N#C/C(=C\c1ccc(-c2cc(Cl)ccc2Cl)o1)C(=O)Nc1cccc2ncccc12	1110
Cc1nc2cc(-c3noc(-c4ccc(Cl)cc4)n3)ccc2n(C)c1=O	872
O=C(Cn1nc2nc(Nc3ccc(F)cc3)ccn2c1=O)Nc1ccccc1F	754
COc1cc(OC)c(NC(=O)N(C)Cc2nc3cc(C(=O)N(C)C)ccc3n2C)cc1Cl	619
CCn1c(C(=O)NCCc2c[nH]c3ccccc23)cc2c(-c3cccs3)nn(-c3ccccc3)c21	1150

(A) O=C(NCCCN1CCCC1=O)c1ccc2ncnc(N3CCCCC3)c2c1
(B) COc1ccc(-c2noc(-c3nnn4c3COC(c3ccc(C)cc3C)C4)n2)cc1OC (stereo not drawn)
Task: // compare measured RP-LC retention time between A and B ; output the lower one Reply briefly: the label of your chosen item.
Result: A
(A: 584 s, B: 1190 s)

(A) Cc1ccc(NC(=O)NCCc2cn(CC(C)C)c3ncccc23)cc1Cl
(B) CCOC(=O)c1cc(S(=O)(=O)NCCC(=O)N2CCN(c3ccccn3)CC2)cn1C
Task: Which one would you say has the larger RP-LC retention time value: A , or B ? # respond with the chosen item's label
Result: A
(A: 941 s, B: 601 s)

(A) CC1CCCN(c2ccn3c(=O)n(CC(=O)NCc4ccc(F)cc4)nc3n2)C1 (stereo not drawn)
(B) Cc1ccc(-c2noc(C3CCCN3S(=O)(=O)c3ccc(Br)cc3)n2)cc1 (stereo not drawn)
(C) CCn1cnnc1C1CCN(C(=O)c2ccc3c(c2)OCO3)CC1
Task: Please produce an ascending ranking of these molecules based on RP-LC retention time. Give the order by naming the labels one after another as requested.
Result: C, A, B

(I) Cc1cccc(CNC(=O)C2(C)Oc3cccnc3NC2=O)c1 (stereo not drawn)
(II) Cc1nn(-c2nc(-c3ccc(Cl)cc3)cs2)c(C)c1CC(=O)NC(C)C
Task: Return label of the item with the larger RP-LC retention time. Candidates: I , II . Selection: enter the item's label.
Result: II

----------
Experiment: gradient 5% acetonitrile 3 min, to 50% in 2 min, to 85% in 15 min, held 3 min, 100 µL/min
Conditions: column: Zorbax Extend-C18 2.1 x 50 mm; eluents: water / acetonitrile, 0.1% formic acid
Endpoint: RP-LC retention time (s)

CO[C@H]1C(=O)N(C2CCN(C(=O)Nc3ccc4c(c3)OCCO4)CC2)[C@H]1c1ccncc1	582
CCc1ccc2nc(Nc3ncc4c(n3)CC(c3ccc(F)cc3)CC4=O)nc(C)c2c1 (centres undefined)	835

(I) Cc1ccc2nc(CNC(=O)C3CCN(S(=O)(=O)c4ccc5c(c4)sc(=O)n5C)CC3)[nH]c2c1
(II) Cc1csc(-c2ccc(CNC(=O)c3cc4ccccc4[nH]3)cc2)n1
Task: Given the two records I and II , choose the one whose RP-LC retention time value is lower. Label of pick, please.
Result: I

----------
Assay: gradient 5% acetonitrile 3 min, to 50% in 2 min, to 85% in 15 min, held 3 min, 100 µL/min
Settings: column: Zorbax Extend-C18 2.1 x 50 mm; eluents: water / acetonitrile, 0.1% formic acid
Endpoint: RP-LC retention time (s)

// worked examples, RP-LC retention time included
CN(C)C(=O)c1ccc2c(c1)N(CC(=O)NCc1cccc(Cl)c1)C(=O)C1CCCCN21 (centres undefined)	619
CC(C)CNC(=O)c1ccc(-c2nnc3ccc(NC(=O)C4CC4)cn23)cc1	708
CCc1noc(-c2nc(-c3ccc(OC)cc3OC)no2)n1	976

(A) CCC(=O)NCc1nc2c(n1C)CN(S(=O)(=O)c1ccc(F)c(F)c1)CC2
(B) O=C(Cn1ccc2ccn(Cc3ccccc3)c2c1=O)NCc1cccs1
Task: Lab log: flag the item ( A or B ) with the smaller RP-LC retention time figure. # reply format: chosen label
Result: A

(a) Cc1ccc(NC(=O)C(=O)c2ccc[nH]2)cc1F
(b) CNC(=O)[C@@H]1CN(S(=O)(=O)c2cnc[nH]2)C[C@H]1c1nc(C)no1
Task: API: POST /compare with a and b ; response names the item with higher RP-LC retention time. Please respond with the label that marks your chosen entry.
Result: a

(I) CCCn1cc(CCNC(=O)Nc2cccc(Cl)c2C)c2cccnc21
(II) CNC(=O)[C@@H]1C[C@H](Oc2cccnc2)CN1C(=O)c1ccc2ncccc2c1
Task: When I and II are compared, which has the higher number for RP-LC retention time? Kindly state the label of the option you pick.
Result: I

(a) Cc1nc(-c2cccc(F)c2)sc1C(=O)N(C)C
(b) Cc1ccc(-c2noc(C3CCCN3S(=O)(=O)c3ccc(Br)s3)n2)cc1 (centres undefined)
Task: Could you please tell me which of these two has the higher RP-LC retention time: a or b ? Answer format: the label of the selected item.
Result: b

----------
Assay: gradient 5% acetonitrile 3 min, to 50% in 2 min, to 85% in 15 min, held 3 min, 100 µL/min
Conditions: column: Zorbax Extend-C18 2.1 x 50 mm; eluents: water / acetonitrile, 0.1% formic acid
Endpoint: RP-LC retention time (s)

(a) CCNc1cc(N2CCC(CCC(=O)Nc3ccc(OC)c(OC)c3)CC2)ncn1
(b) CCc1nc(-c2ccc(-c3noc(COc4ccc(OC)cc4)n3)cc2)cs1
Task: Please let me know which one, a or b , has a lower measured RP-LC retention time value. Refer to your chosen entry by its label in the reply.
Result: a
(a: 614 s, b: 1270 s)

(A) COc1ccc(CC(=O)Nc2nnc(SCC(=O)NC3=NCCS3)s2)cc1
(B) CN(CCc1noc(-c2ccc(F)cc2)n1)C(=O)Nc1ccccc1Cl
Task: // select label with min value of measured RP-LC retention time from [ A , B ] Identify your selection by its label.
Result: A
(A: 682 s, B: 983 s)

(a) O=C(Nc1ccc2c(c1)C(=O)NCC2)Nc1ccccc1C(F)(F)F
(b) COc1cccc(Cn2c(C(=O)N3CCC(C(=O)NCC4CCCCC4)CC3)cc3ccsc32)c1
Task: Please indicate which has the smaller reported RP-LC retention time: a , or b . Answer by quoting the chosen item's label.
Result: a

----------
Assay: gradient 5% acetonitrile 3 min, to 50% in 2 min, to 85% in 15 min, held 3 min, 100 µL/min
Conditions: column: Zorbax Extend-C18 2.1 x 50 mm; eluents: water / acetonitrile, 0.1% formic acid
Endpoint: RP-LC retention time (s)

CCCCCn1c(=O)c2ccccc2n(Cc2nc(-c3cccc(C)c3)no2)c1=O	1310
Cc1cc(C)c(NC(=O)Cn2c(C)nc3onc(C)c3c2=O)c(C)c1	814
COCCN1CCC2(CC1)CN(Cc1cc(OC)cc(OC)c1)Cc1ccccc1O2	560
Cn1nnc2cc(-c3noc(COc4ccc(Cl)cc4)n3)ccc21	994
O=C(N[C@@H]1CN(c2ncccn2)C[C@H]1CO)c1ccc(F)cn1	595
COc1ccc(NC(=O)N2CCCC2c2nc(-c3ccccc3OC)no2)cc1 (stereo not given)	826

(A) Cc1nnc2ccc(N3CCC(C(=O)NCCCN4CCN(c5ccc(F)cc5)CC4)CC3)nn12
(B) COc1ccc(N2CC(C(=O)N3CCN(c4ccccn4)CC3)CC2=O)cc1 (stereo not given)
(C) CCc1nc2cc(-c3noc(-c4cccc(F)c4)n3)ccc2o1
Task: Order the items by recorded RP-LC retention time; the first position goes to the largest value. Answer with the labels in sequence, matching the requested order.
Result: C, A, B
(C: 1230 s, A: 838 s, B: 582 s)
